Origin of measurements: ChEMBL document CHEMBL1201862

- Tested on: UO-31
- procedure.details: NCI tumour cell line growth inhibition, 48 h
Calls of active or inactive are those of the source. No stated cut-off is given here; in the data, active = GI50 up to about 1.1 µM and inactive = higher.
property.label: GI50

compound	readout.value
C=C1C(=O)C23CC1CCC2C12CO[C@@H]4OCC(C)(CC[C@@H]1OC3=O)C42 (stereo partly specified)	9.71 µM (inactive)
CC(=O)Oc1ccc(OC(Oc2ccccc2)c2ccccc2)cc1 (stereo unspecified)	26.8 µM (inactive)
Cc1ccc2c(c1)S(=O)(=O)c1ccc3ccccc3c1N2	> 100 µM (inactive)
CC1=C(C)C1[N+](=O)[O-]	> 100 µM (inactive)
O=C1C[C@@H](c2ccccc2)O[C@@H](c2ccccc2)C1	> 100 µM (inactive)
COc1ccc(OC)c2cc(C3(C)SCCCS3)ccc12	> 100 µM (inactive)

---

- Tested on: U-251
- procedure.details: NCI tumour cell line growth inhibition, 48 h
The source made the active and inactive calls. No stated cut-off is given here; in the data, active = GI50 up to about 1.1 µM and inactive = higher.
property.label: GI50

molecule	readout.value
Cn1c(=O)cc(NCc2ccc(Cl)cc2)[nH]c1=O	40.3 µM (inactive)
C=C(C#N)C1OCC2OC(C)(C)OC21 (stereo unspecified)	32.7 µM (inactive)
CSc1nc(SC)c2c(C)cn(Cc3ccccc3)c2n1	> 100 µM (inactive)
CCOP(=O)(OCC)/C(=C/c1cccs1)CC(C)=O	> 100 µM (inactive)
Fc1cccc(Cl)c1C1SCc2nc3cc4ccccc4cc3n21 (stereo unspecified)	> 100 µM (inactive)
CC(=O)c1ccc(/N=N/c2ccc3nonc3c2N)cc1	> 100 µM (inactive)
C=C1C(=O)C23CC1CCC2C12CO[C@@H]4OCC(C)(CC[C@@H]1OC3=O)C42 (stereo partly specified)	14 µM (inactive)
CC1C(=O)OC2CC[N+]3(CC(=O)c4ccc(Br)cc4)CC=C(COC(=O)C(C)(O)C1(C)O)C23 (stereo unspecified)	> 375 µM (inactive)
Cc1cc2[nH]c3c(C#N)c(-c4ccccc4)c(/N=N/c4ccc(F)cc4)c(=O)n3c2cc1C	42.5 µM (inactive)
Cc1ccc(S(=O)(=O)N2CCSCCSCCSCCSCC2)cc1	18.4 µM (inactive)
Nc1ncnc2c1ccn2CC#CCO	> 100 µM (inactive)

---

- System: TK-10
- procedure.details: NCI tumour cell line growth inhibition, 48 h
Structures can show the parent of a compound that is named as a salt. Calls of active or inactive are those of the source. Cut-off read from the data, not from the text of the source: active = GI50 up to about 1.1 µM and inactive = higher.
The reader will find reported GI50 values listed item by item below.

compound	GI50
C=CC(c1ccccc1)C1(O)c2cccc(O)c2C(=O)c2c(O)cccc21 (configuration not stated)	19.2 µM (inactive)
CCCC(=O)OC1C(CO)OC(n2cc(F)c(=O)[nH]c2=O)C1F (configuration not stated)	> 100 µM (inactive)
Cc1nc(Cl)c(CBr)c(Cl)n1	2.08 µM (inactive)
CNC(C)Cc1ccccc1OC (configuration not stated) [METHOXYPHENAMINE HYDROCHLORIDE]	> 100 µM (inactive)
c1cc2c(cc1C1OCC3C(c4ccc5c(c4)OCO5)OCC13)OCO2 (configuration not stated)	78.9 µM (inactive)
Cc1ccc2c(c1)S(=O)(=O)c1ccc3ccccc3c1N2	> 100 µM (inactive)
[O-][S+](Cc1ccccc1)c1ccccc1Cn1cccc1 (configuration not stated)	> 100 µM (inactive)
CN(C)CCNC(=O)C(C)(C)Oc1ccc(C(=O)c2ccc(Cl)cc2)cc1Cl	11.4 µM (inactive)
COC1=C(OC)CCC(/C(C#N)=C/c2ccc(OC)c(OC)c2)=C1	34.2 µM (inactive)
N#C/C(=C\c1cc(O)c(O)c(O)c1)C(N)=O	> 100 µM (inactive)
CCC/C(Cl)=N\OC(=O)Nc1cccc(C(F)(F)F)c1	15.4 µM (inactive)
Brc1c2nc3ccccc3nc2n2ccc3ccccc3c12	> 100 µM (inactive)
O=c1cc(-c2ccccc2)oc2cc(Oc3nnnn3-c3ccccc3)ccc12	67 µM (inactive)
Cc1ccc(S(=O)(=O)NC(=O)NC(Cc2ccc(O)cc2)C(=O)O)cc1 (configuration not stated)	> 100 µM (inactive)
CNC(=O)c1nc[nH]c1/N=N/N(C)N	> 100 µM (inactive)
O=c1c(C(c2cc(OCc3ccccc3)cc(OCc3ccccc3)c2)c2c(O)oc3ccccc3c2=O)c(O)oc2ccccc12	11.5 µM (inactive)
CCOC(=O)c1cn2c(ccc3sc4ccccc4c(=O)c32)n1	> 100 µM (inactive)
COc1ccc(NC(=O)CSc2nc(C)nc3c2sc(=S)n3-c2ccccc2)cc1	> 10 µM (inactive)
CCSCC(N)C(=O)O (configuration not stated)	> 100 µM (inactive)
CN1CCc2cc3c4cc2C1Cc1ccc(cc1)Oc1cc(ccc1O)CC1c2c(cc(O)c(c2O4)O3)CCN1C (configuration not stated)	10.6 µM (inactive)
N#C[BH2-][n+]1ccc(C(=O)NNCc2ccc(F)cc2)cc1	> 100 µM (inactive)
O=C1c2ccccc2C(=O)c2sc(Nc3ccc(Cl)cc3)nc21	5.89 µM (inactive)
COC(=O)C1=COC(C)C2C[n+]3ccc4c([nH]c5ccccc54)c3CC12 (configuration not stated)	> 100 µM (inactive)
C=C1CN2CCc3c([nH]c4ccccc34)C2CC1CC(=O)N(C)C (configuration not stated)	> 309 µM (inactive)
COc1cccc2cc(C(=O)O)c(=O)oc12	> 100 µM (inactive)
Clc1cccc(N2CCN(CCN3CCc4c([nH]c5ccccc45)C3c3cccnc3)CC2)c1 (configuration not stated)	> 100 µM (inactive)
COC(=O)/C=C\C(C#N)(C#N)/N=C/c1ccc(OC)cc1	2.63 µM (inactive)
[O-][S+]1CC[S+]([O-])CC[S+]([O-])CC1 (configuration not stated)	> 100 µM (inactive)
O=C1N[C@H](C(=O)O)[C@@H](c2ccc(OCc3ccccc3)cc2)O1	27.4 µM (inactive)
CC1C[C@]2(C)C(NCCN)=Nc3ccccc3[C@@H]2N(C)c2ccccc21 (some centres not stated)	9.29 µM (inactive)
COc1ccc(OC)c2cc(C3(C)SCCCS3)ccc12	> 100 µM (inactive)
COCOC1C=CCCCC2=CC(C)=C(CC1)O2 (configuration not stated)	> 100 µM (inactive)
C=C1C(=O)C23CC1CCC2C12CO[C@@H]4OCC(C)(CC[C@@H]1OC3=O)C42 (some centres not stated)	5.75 µM (inactive)
C[n+]1c2ccccc2c(CNC(CCC(N)=O)C(=O)O)c2ccccc21 (configuration not stated)	1.53 µM (inactive)
CN(C)CC1CCC(CN(C)C)C1=O (configuration not stated)	14.7 µM (inactive)
O=C(Oc1cccc2cccnc12)c1cc2cc(CCl)ccc2oc1=O	25.5 µM (inactive)
O=C1/C(=C\c2ccco2)Oc2ccccc21	> 100 µM (inactive)

---

- System: Malme-3M
- procedure.details: NCI tumour cell line growth inhibition, 48 h
Calls of active or inactive are those of the source. No stated cut-off is given here; in the data, active = GI50 up to about 1.1 µM and inactive = higher.
The reader will find reported GI50 values listed item by item below.

compound	GI50
COc1ccccc1NC(=O)C1=C(C)NC(C)=C(C(=O)Nc2ccccc2OC)C1C1=CC=COC1	5.68 µM (inactive)
Cn1cc(C(=O)c2ccccc2)c2ccccc2c1=O	> 100 µM (inactive)
CSCCC(NC(c1ccccc1)c1ccccc1)[PH](=O)O (stereo not given)	> 100 µM (inactive)
Cc1c2cc[n+](C)cc2c(C)c2c1oc1ccccc12	1.6 µM (inactive)
CC(=O)N[C@@H](Cc1ccc(O)cn1)C(=O)NCc1ccc(Cl)cc1	> 100 µM (inactive)
COC1C=COC2(C)Oc3c(C)c(O)c4c(O)c(c(/C=N/N5CCN(N)CC5)c(O)c4c3C2=O)NC(=O)C(C)=CC=CC(C)C(O)C(C)C(O)C(C)C(OC(C)=O)C1C (stereo not given)	> 100 µM (inactive)
Nc1ncnc2c1ccn2CC#CCO	> 100 µM (inactive)
CC(C)(C)C1=Nc2c(Br)cc(C(C)(C)C)cc2C(C(F)(F)F)(C(F)(F)F)O1	> 100 µM (inactive)
O=C1OC(c2ccccc2)=N/C1=C/N1CCCC1C(=O)O (stereo not given)	> 100 µM (inactive)
CC1(CCCO)CCCCCCCCCC(C)(CCCO)C1=O (stereo not given)	> 100 µM (inactive)
O=C1COc2ccc([N+](=O)[O-])cc2C(=O)C1	> 10 µM (inactive)
O=c1[nH]nc(NCc2ccccc2)c2nnn(Cc3ccccc3)c12	> 100 µM (inactive)
O=c1oc2ccc(Cl)cc2cc1-c1cn2ccccc2n1	3.46 µM (inactive)
N#CCCN(CCCN(C(=O)Nc1ccc(NC(=O)N(CCCN(CCC#N)C(N)=O)c2ccccc2)cc1)c1ccccc1)C(N)=O	> 100 µM (inactive)
Cc1ccccc1/C=C/C(=O)c1ccccc1	18.1 µM (inactive)
Cc1ccc(/N=c2/oc3c(ccc4ccccc43)nc2Nc2ccc(C)cc2)cc1	> 100 µM (inactive)
O=c1oc2c3ccc4ccccc4c3n(CCCN3CCCCC3)c2c2ccccc12	20.7 µM (inactive)
COC(=O)c1nn(C(=N)c2ccc(Cl)cc2)c2c1CCC2	> 100 µM (inactive)
N#C[BH2-][n+]1ccc(C(=O)NNCc2ccc(F)cc2)cc1	> 100 µM (inactive)
CC1=NN(C(=O)CC(=O)Nc2ccccc2F)C(=O)C1/N=N/c1ccccc1[N+](=O)[O-] (stereo not given)	> 100 µM (inactive)
